- method-summary: Tacrolimus whole blood concentration, trough and 12-h AUC after kidney transplantation (chemiluminescent microparticle immunoassay)
- Format: in vivo, human
- condition: human, whole blood, oral, 30 mg, day 3 post-transplantation; CYP3A5 expressers, diltiazem 30 mg every 12 h (n = 11); median (IQR)
- Procedure: This prospective, randomized, double-blind, placebo-controlled study was carried out in four parallel groups of KTRs. […] […] Whole blood tacrolimus concentrations were determined within the same day of blood collection by using a chemiluminescent microparticle immunoassay method with […] system® i2000 (Abbott, Abbott Diagnostic, USA). […] For calculation of AUC/D and C0/D, values of AUC and C0 were dose-adjusted by dividing the observed values by the dose recorded on the day of blood collection. […]
quantity-kind: C0 (ng/mL)
Answer format: numeric, ng/mL implied, no suffix.

Bench note: what C0 did `C=CC[C@@H]1/C=C(\C)C[C@H](C)C[C@H](OC)[C@H]2O[C@@](O)(C(=O)C(=O)N3CCCC[C@H]3C(=O)O[C@H](/C(C)=C/[C@@H]3CC[C@@H](O)[C@H](OC)C3)[C@H](C)[C@@H](O)CC1=O)[C@H](C)C[C@@H]2OC` show?
9.3

====

- method-summary: Tacrolimus whole blood concentration, trough and 12-h AUC after kidney transplantation (chemiluminescent microparticle immunoassay)
- Format: in vivo, human
- condition: human, whole blood, oral, day 7 post-transplantation; CYP3A5 expressers, placebo (n = 12); mean ± SD; read-out: AUC (area under the concentration over 12-h curve)
quantity-kind: AUC (ng·h/mL)
Answer format: numeric, ng·h/mL implied, no suffix.

Bench note: what AUC did C=CC[C@@H]1/C=C(\C)C[C@H](C)C[C@H](OC)[C@H]2O[C@@](O)(C(=O)C(=O)N3CCCC[C@H]3C(=O)O[C@H](/C(C)=C/[C@@H]3CC[C@@H](O)[C@H](OC)C3)[C@H](C)[C@@H](O)CC1=O)[C@H](C)C[C@@H]2OC [Tacrolimus] show?
169
